Biological target: Carbonic anhydrase (Bos taurus) (UniProt P00921+Q95323+P18915+Q3SZX4)
Assay: Evaluated for the inhibition of carbonic anhydrase enzyme at 0.2 g/L concentration
Format: protein assay
assay metric: inhibition (%)

Examples with their reported inhibition follow.
COc1ccc(S(N)(=O)=O)cc1C(=O)N1CCN(CC(C)C)CC1 | 36.4
COc1cccc(CN2CCN(C(=O)c3cc(S(N)(=O)=O)ccc3OC)CC2)c1 | 66.7
C=CCN1CCN(C(=O)c2cc(S(N)(=O)=O)ccc2OC)CC1 | 36.4
CCC(C)CN1CCN(C(=O)c2cc(S(N)(=O)=O)ccc2OC)CC1 (stereo not given) | 46.2
COc1ccc(S(N)(=O)=O)cc1C(=O)N1CCN(CC(=O)NC(C)C)CC1 | 54.6

[1] COc1ccc(S(N)(=O)=O)cc1C(=O)N1CCNCC1
[2] COc1ccc(S(N)(=O)=O)cc1C(=O)N1CCN(Cc2ccc(S(N)(=O)=O)cc2)CC1
[3] COc1ccc(S(N)(=O)=O)cc1C(=O)N1CCN(CC(=O)N2CCCC2)CC1
Could you please sort these 3 entries by inhibition from high to low? Use the labels to give the ranking in the order requested.
2, 3, 1

[I] CC[C@H](C)COc1ccc(S(N)(=O)=O)cc1C(=O)NC[C@@H]1CCCN1CC
[II] NS(=O)(=O)c1nc(C(=O)N2CCN(Cc3ccccc3)CC2)c[nH]1
Which one would you say has the larger inhibition value: I , or II ? Reply briefly: the label of your chosen item.
II

----------
Target: Carbonic anhydrase (Bos taurus) (UniProt P00921+Q95323+P18915+Q3SZX4)
Test: Evaluated for the inhibition of carbonic anhydrase enzyme at 0.2 g/L concentration
Type: protein assay
assay metric: inhibition (%)

COc1ccc(S(N)(=O)=O)cc1C(=O)N1CCN(Cc2ccccc2)CC1 | 58.3
COc1ccc(S(N)(=O)=O)cc1C(=O)NCCCN1CCOCC1 | 45.5
COc1ccc(S(N)(=O)=O)cc1C(=O)NCCN1CCCCC1 | 39.4
COc1ccc(S(N)(=O)=O)cc1C(=O)N1CCN2CCCC2C1 (stereo not given) | 46.2
COc1ccc(S(N)(=O)=O)cc1C(=O)N1CCN(Cc2cc(OC)c(OC)c(OC)c2)CC1 | 61.4
COc1ccc(CN2CCN(C(=O)c3cc(S(N)(=O)=O)ccc3OC)CC2)cc1 | 63.6
CC[C@H](C)COc1ccc(S(N)(=O)=O)cc1C(=O)NC[C@H]1CCCN1CC | 41.7
CCN1CCCC1CN(C)C(=O)c1cc(S(N)(=O)=O)ccc1OC (stereo not given) | 39.4
COc1ccc(S(N)(=O)=O)cc1CN1CCN(Cc2ccccc2)CC1 | 37.9
COc1ccc(S(N)(=O)=O)cc1C(=O)N1CCN(CC2CCCCC2)CC1 | 51.5

Hello, the source for this data is ChEMBL document CHEMBL1123218, in case you need it.
